# Tested on: Aphis craccivora
# Method: B-6 contact action on Aphis craccivora (sprayed pea seedlings)
# Assay type: in vivo
# Conditions: Aphis craccivora, 72 h; 12,5 ppm; after 3 days; read-out: Abtötung

Given smiles	Units	mortality at 12.5 ppm
CC[C@H]1O[C@]2(CC[C@@H]1C)C[C@@H]1C[C@@H](C/C=C(\C)[C@H](C)[C@@H](C)/C=C/C=C3\CO[C@@H]4[C@H](OC(=O)COC)C(C)=C[C@@H](C(=O)O1)[C@]34O)O2	%	100
CC[C@H]1O[C@]2(CC[C@@H]1C)C[C@@H]1C[C@@H](C/C=C(\C)[C@H](C)[C@@H](C)/C=C/C=C3\CO[C@@H]4[C@H](OC(=O)CCl)C(C)=C[C@@H](C(=O)O1)[C@]34O)O2	%	100
CC[C@H]1O[C@]2(CC[C@@H]1C)C[C@@H]1C[C@@H](C/C=C(\C)[C@H](C)[C@@H](C)/C=C/C=C3\CO[C@@H]4[C@H](OC(=O)Cn5cncn5)C(C)=C[C@@H](C(=O)O1)[C@]34O)O2	%	100
CC[C@H]1O[C@]2(CC[C@@H]1C)C[C@@H]1C[C@@H](C/C=C(\C)[C@H](C)[C@@H](C)/C=C/C=C3\CO[C@@H]4[C@H](OC(=O)COC(C)=O)C(C)=C[C@@H](C(=O)O1)[C@]34O)O2	%	100
